biological target: Aldo-keto reductase family 1 member B1 (Rattus norvegicus, UniProt P07943); assay: Compound was tested for the inhibition of the rat lens aldose reductase using the substrate as glucose.
measurement_name: pIC50
# pIC50: negative log10 of molar concentration; output just the value

Query :: // map O=C(O)Cc1nn(Cc2nc3cc(C(F)(F)F)ccc3s2)c(=O)c2ccccc12 to recorded pIC50 (system: Aldo-keto reductase family 1 member B1 (Rattus norvegicus, UniProt P07943))
Result :: 8.00

----------
target: Aldo-keto reductase family 1 member B1 (Homo sapiens, UniProt P15121); test: Inhibition of aldose reductase (aldo-keto reductase, AKR1B1) isolated from human placenta.
Please go through the items and note down their IC50.
Give the value in µM but do not write µM after it.

Query :: // map CN1C(C(=O)Nc2nc3ccccc3s2)=C(O)c2ccccc2S1(=O)=O to recorded IC50 (system: Aldo-keto reductase family 1 member B1 (Homo sapiens, UniProt P15121))
Result :: 5.5

Query :: Now give it for O=C(O)Cc1nn(Cc2nc3c(F)ccc(F)c3s2)c(=O)c2ccccc12 too.
Result :: 0.005

Query :: Now give it for C[S+]([O-])c1ccc2sc(Cn3nc(CC(=O)O)c4ccccc4c3=O)nc2c1 (stereo unspecified) too.
Result :: 4.3

Query :: Now give it for O=C(O)Cc1nn(CCc2nc3cc(C(F)(F)F)ccc3s2)c(=O)c2ccccc12 too.
Result :: 0.46

Query :: Now give it for O=C(O)Cc1nn(Cc2nc3ccc(C(F)(F)F)cc3s2)c(=O)c2ccccc12 too.
Result :: 0.07

Query :: Now give it for Cc1ccc2sc(Cn3nc(CC(=O)O)c4ccccc4c3=O)nc2c1 too.
Result :: 0.026

Query :: Now give it for Cc1ccc2nc(Cn3nc(CC(=O)O)c4ccccc4c3=O)sc2c1 too.
Result :: 0.32

Query :: Now give it for Cc1cc(C)c2sc(Cn3nc(CC(=O)O)c4ccccc4c3=O)nc2c1 too.
Result :: 0.0059

Query :: Now give it for O=C(O)Cc1nn(Cc2nc3cc(F)cc(F)c3s2)c(=O)c2ccccc12 too.
Result :: 0.0063

Query :: Now give it for CC(c1nc2cc(Cl)ccc2s1)n1nc(CC(=O)O)c2ccccc2c1=O (stereo unspecified) too.
Result :: 0.026

Query :: Now give it for O=C(O)Cc1nn(Cc2nc3ccccc3s2)c(=O)c2ccccc12 too.
Result :: 0.019

Query :: Now give it for O=C(O)Cc1nn(Cc2nc3cc(F)cc(Cl)c3s2)c(=O)c2ccccc12 too.
Result :: 0.0062

Query :: Now give it for Cc1cccc2c(CC(=O)O)nn(Cc3nc4ccccc4s3)c(=O)c12 too.
Result :: 0.42

Query :: Now give it for COc1ccc2nc(Cn3nc(CC(=O)O)c4ccccc4c3=O)sc2c1 too.
Result :: 4.2

Query :: Now give it for O=C(O)Cc1nn(Cc2nc3cc(C(F)(F)F)cc(C(F)(F)F)c3s2)c(=O)c2ccccc12 too.
Result :: 1.4

Query :: Now give it for O=C(O)Cc1nn(Cc2nc3cccc(Br)c3s2)c(=O)c2ccccc12 too.
Result :: 0.015

Query :: Now give it for O=C(O)Cc1nn(Cc2nc3ccc(O)cc3s2)c(=O)c2ccccc12 too.
Result :: 1

Query :: Now give it for CC(C)c1ccc2nc(Cn3nc(CC(=O)O)c4ccccc4c3=O)sc2c1 too.
Result :: 3.2

Query :: Now give it for O=C(O)Cc1nn(Cc2nc3c(Cl)cc(Cl)cc3s2)c(=O)c2ccccc12 too.
Result :: 0.17

Query :: Now give it for O=C(O)Cc1nn(Cc2nc3cc(F)c(F)cc3s2)c(=O)c2ccccc12 too.
Result :: 0.068

Query :: Now give it for Cc1ccc2c(=O)n(Cc3nc4ccccc4s3)nc(CC(=O)O)c2c1 too.
Result :: 0.027

----------
assay: Compound was evaluated for the apparent pKa (dioxane/water) the ratio 2:1; type: physicochemical; conditions: dioxane/water 2:1
measurement_name: pKa
Just the number, please.

Query :: Requested field: pKa. Item: O=C(O)Cc1nn(Cc2nc3cc(F)cc(F)c3s2)c(=O)c2ccccc12
Result :: 6.38

Query :: Now give it for O=C(O)c1nnc(O)c2ccccc12 too.
Result :: 6.35

Query :: Now give it for O=C(O)Cc1nn(Cc2nc3cc(C(F)(F)F)ccc3s2)c(=O)c2ccccc12 [ZOPOLRESTAT] too.
Result :: 6.38

Query :: Now give it for O=C(O)Cc1nn(Cc2nc3cc(F)ccc3s2)c(=O)c2ccccc12 too.
Result :: 6.35

----------
target: Aldo-keto reductase family 1 member B1 (Homo sapiens, UniProt P15121); assay: Inhibition of aldose reductase (aldo-keto reductase, AKR1B1) isolated from human placenta.
measurement_name: IC50 (µM)
Give the value in µM but do not write µM after it.

Query :: Requested field: IC50. Item: Cc1cccc2c(CC(=O)O)nn(Cc3nc4c(ccc5ccccc54)s3)c(=O)c12
Result :: 0.042

Query :: Now give it for O=C(O)Cc1nn(Cc2nc3c(F)c(F)ccc3s2)c(=O)c2ccccc12 too.
Result :: 0.01

Query :: Now give it for O=C(O)Cc1nn(Cc2nc3ccccc3s2)c(=O)c2cc([N+](=O)[O-])ccc12 too.
Result :: 0.033

----------
tested on: aldose reductase (Rattus norvegicus); assay: In vivo inhibition of sorbitol accumulation in the rat following 10 mg/kg p.o. administration.; settings: at 10 mg/kg
Please go through the items and note down their inhibition.
Give the value in % but do not write % after it.

Query :: Requested field: inhibition. Item: O=C(O)Cc1nn(Cc2nc3cccc(C(F)(F)F)c3s2)c(=O)c2ccccc12
Result :: 80

Query :: Now give it for O=C(O)Cc1nn(Cc2nc3ccccc3s2)c(=O)c2cc(Br)ccc12 too.
Result :: 42

Query :: Now give it for O=C(O)Cc1nn(Cc2nc3c(F)ccc(F)c3s2)c(=O)c2ccccc12 too.
Result :: 73

Query :: Now give it for O=C(O)Cc1nn(Cc2nc3cccc(Br)c3s2)c(=O)c2ccccc12 too.
Result :: 71

Query :: Now give it for O=C(O)Cc1nn(Cc2nc3cc(Cl)ccc3s2)c(=O)c2ccccc12 too.
Result :: 73

Query :: Now give it for O=C(O)Cc1nn(Cc2nc3cc(F)cc(F)c3s2)c(=O)c2ccccc12 too.
Result :: 80

Query :: Now give it for O=C(O)Cc1nn(Cc2nc3ccc(C(F)(F)F)cc3s2)c(=O)c2ccccc12 too.
Result :: 65

Query :: Now give it for O=C(O)Cc1nn(Cc2nc3cc(Cl)cc(Cl)c3s2)c(=O)c2ccccc12 too.
Result :: 73

Query :: Now give it for O=C(O)Cc1nn(Cc2nc3cc(F)cc(Cl)c3s2)c(=O)c2ccccc12 too.
Result :: 58

Query :: Now give it for O=C(O)Cc1nn(Cc2nc3c(Cl)cccc3s2)c(=O)c2ccccc12 too.
Result :: 63

Query :: Now give it for O=C(O)Cc1nn(Cc2nc3c(F)c(F)ccc3s2)c(=O)c2ccccc12 too.
Result :: 82

Query :: Now give it for O=C(O)Cc1nn(Cc2nc3cccc(Cl)c3s2)c(=O)c2ccccc12 too.
Result :: 52

Query :: Now give it for O=C(O)Cc1nn(Cc2nc3cc(Cl)cc(F)c3s2)c(=O)c2ccccc12 too.
Result :: 63

Query :: Now give it for O=C(O)Cc1nn(Cc2nc3c(C(F)(F)F)cccc3s2)c(=O)c2ccccc12 too.
Result :: 61
